test system: Aorta; experiment: Vasorelaxant activity in Wistar rat endothelium-intact thoracic aortic rings assessed as inhibition of phenylephrine-induced contraction; type: functional, tissue-based

# molecule, EC50 / µM
measured = [
    ("Cn1c(=O)c2cccc(Cl)c2c(=O)n1CCCN", 44.7),
    ("Cn1c(=O)c2c(Cl)cccc2c(=O)n1CCCNC(=O)OC(C)(C)C", 2.15),
    ("Cn1c(=O)c2ccccc2c(=O)n1CCNC(=O)OC(C)(C)C", 2.44),
    ("Cn1c(=O)c2ccccc2c(=O)n1CCCBr", 3.1),
    ("Cn1c(=O)c2c(Cl)cccc2c(=O)n1CCCBr", 6.61),
    ("Cn1c(=O)c2ccccc2c(=O)n1CCCN=[N+]=[N-]", 2.35),
    ("Cn1c(=O)c2cccc(Cl)c2c(=O)n1CCCNC(=O)OC(C)(C)C", 4.78),
    ("CN1C(=O)CN=C(c2ccccc2)c2cc(Cl)ccc21", 69),
    ("Cn1c(=O)c2c(Cl)cccc2c(=O)n1CCCN", 8.51),
    ("NNc1nncc2ccccc12 [HYDRALAZINE]", 1180),
    ("Cn1c(=O)c2c(Cl)cccc2c(=O)n1CCN=[N+]=[N-]", 4.12),
    ("Cn1c(=O)c2cccc(Cl)c2c(=O)n1CCCN=[N+]=[N-]", 4.31),
]

====

test system: Aorta; assay: Vasorelaxant activity in Wistar rat endothelium-intact thoracic aortic rings assessed as inhibition of phenylephrine-induced contraction; type: functional, tissue-based
Binning of EC50 into classes: lower range: < 3 µM; middle range: ≥ 3 µM and < 8 µM; upper range: ≥ 8 µM

# compound, group.label
rows = [
    ("Cn1c(=O)c2ccccc2c(=O)n1CCN=[N+]=[N-]", "upper range"),
    ("Cn1c(=O)c2c(Cl)cccc2c(=O)n1CCNC(=O)OC(C)(C)C", "lower range"),
    ("Cn1c(=O)c2ccccc2c(=O)n1CCBr", "lower range"),
    ("Cn1c(=O)c2cccc(Cl)c2c(=O)n1CCN=[N+]=[N-]", "middle range"),
    ("Cn1c(=O)c2c(Cl)cccc2c(=O)n1CCN", "upper range"),
    ("Cn1c(=O)c2cccc(Cl)c2c(=O)n1CCNC(=O)OC(C)(C)C", "middle range"),
    ("Cn1c(=O)c2cccc(Cl)c2c(=O)n1CCCBr", "middle range"),
    ("Cn1c(=O)c2ccccc2c(=O)n1CCCNC(=O)OC(C)(C)C", "middle range"),
    ("Cn1c(=O)c2c(Cl)cccc2c(=O)n1CCCN=[N+]=[N-]", "lower range"),
    ("Cn1c(=O)c2c(Cl)cccc2c(=O)n1CCBr", "middle range"),
    ("Nc1cc(-c2ccncc2)c[nH]c1=O [INAMRINONE]", "upper range"),
]
